Molecular target: T1, endogenous Nup62 (human, UniProt P37198 2-522)
T1 construct: Detected with anti-Nup62
T1 sequence (looked up): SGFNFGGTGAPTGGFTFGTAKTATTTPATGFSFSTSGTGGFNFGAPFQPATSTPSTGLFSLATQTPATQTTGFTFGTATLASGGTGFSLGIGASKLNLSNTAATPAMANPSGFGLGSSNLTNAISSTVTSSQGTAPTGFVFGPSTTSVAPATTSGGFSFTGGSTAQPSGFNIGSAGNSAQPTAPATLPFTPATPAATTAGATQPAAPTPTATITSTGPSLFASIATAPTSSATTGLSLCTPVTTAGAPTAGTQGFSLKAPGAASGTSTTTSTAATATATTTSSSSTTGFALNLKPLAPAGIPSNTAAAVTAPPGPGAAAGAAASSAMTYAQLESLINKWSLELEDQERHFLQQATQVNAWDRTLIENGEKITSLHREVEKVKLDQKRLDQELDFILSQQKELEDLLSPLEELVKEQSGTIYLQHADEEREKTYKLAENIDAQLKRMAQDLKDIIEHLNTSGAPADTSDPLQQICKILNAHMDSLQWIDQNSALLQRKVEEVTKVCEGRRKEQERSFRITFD
Assay: co-IP of GFP-tagged KPNB1 truncations, western blot
Excerpt: FIG. 21A) Schematic domain structure of KPNB1. KPNB1 is comprised of 19 HEAT repeats (H1-19). RanGTP and importin-α interact with H1-8 and H8-19, respectively. FG-Nups bind to two regions of KPNB1, H5-7 and H14-16. FIG. 21B) Lysates from HEK293T cells expressing GFP, GFP-KPNB1 full-length (FL), N-terminal fragments of KPNB1 (H1-9 . . . H1) or the C-terminal fragment of KPNB1 (H10-19) were subjected to immunoprecipitation with GFP-Trap magnetic beads. […]

{"columns": ["binder", "binding result"],
 "data": [
  ["GFP-KPNB1 H1-7 (receptor, not shown: GFP/EGFP tag (pEGFP-C1, Clontech)) GGGSGGGSGGGSMELITILEKTVSPDRLELEAAQKFLERAAVENLPTFLVELSRVLANPGNSQVARVAAGLQIKNSLTSKDPDIKAQYQQRWLAIDANARREVKNYVLQTLGTETYRPSSASQCVAGIACAEIPVNQWPELIPQLVANVTNPNSTEHMKESTLEAIGYICQDIDPEQLQDKSNEILTAIIQGMRKEEPSNNVKLAATNALLNSLEFTKANFDKESERHFIMQVVCEATQCPDTRVRVAALQNLVKIMSLYYQYMETYMGPALFAITIEAMKSDIDEVALQGIEFWSNVCDEEMDLAIEASEAAEQGRPP", "no binding"],
  ["GFP-KPNB1 H1-8 (receptor, also called GFP-KPNB1 H1-8^WT; not shown: GFP/EGFP tag (pEGFP-C1, Clontech)) GGGSGGGSGGGSMELITILEKTVSPDRLELEAAQKFLERAAVENLPTFLVELSRVLANPGNSQVARVAAGLQIKNSLTSKDPDIKAQYQQRWLAIDANARREVKNYVLQTLGTETYRPSSASQCVAGIACAEIPVNQWPELIPQLVANVTNPNSTEHMKESTLEAIGYICQDIDPEQLQDKSNEILTAIIQGMRKEEPSNNVKLAATNALLNSLEFTKANFDKESERHFIMQVVCEATQCPDTRVRVAALQNLVKIMSLYYQYMETYMGPALFAITIEAMKSDIDEVALQGIEFWSNVCDEEMDLAIEASEAAEQGRPPEHTSKFYAKGALQYLVPILTQTLTKQDENDDDDDWNPCKAAGVCLMLLATCCED", "binds"],
  ["GFP-KPNB1 H1-2 (receptor, not shown: GFP/EGFP tag (pEGFP-C1, Clontech)) GGGSGGGSGGGSMELITILEKTVSPDRLELEAAQKFLERAAVENLPTFLVELSRVLANPGNSQVARVAAGLQIKNSLTSKDPD", "no binding"]
]}
